Target or system Escherichia coli DC-2: recorded MIC listed per item.
API: value field is a number in µg/mL; no unit string.

# MIC lookup, item CC[C@H]1OC(=O)[C@H](C)C(=O)[C@H](C)[C@@H](O[C@@H]2O[C@H](C)C[C@H](N(C)C)[C@H]2O)[C@](C)(OC/C=C/c2ccc(-c3ccco3)s2)C[C@@H](C)C(=O)[C@H](C)[C@H]2NC(=O)O[C@@]21C
50

Next:
State the recorded MIC for this entry: CC[C@H]1OC(=O)[C@H](C)C(=O)[C@H](C)[C@@H](O[C@@H]2O[C@H](C)C[C@H](N(C)C)[C@H]2O)[C@](C)(OC/C=C/c2ncc(-c3cccnc3)s2)C[C@@H](C)C(=O)[C@H](C)[C@H]2NC(=O)O[C@@]21C
25
